Target: Serine/threonine-protein kinase 24 (Homo sapiens)
Settings: at 10 µM
measure: residual activity (%)
Give bare numbers, in %.

Consider the worked cases shown below.
>>> numeric_result("CCCC(=O)Oc1ccc2[nH]c(C(=O)c3cc4ccccc4[nH]3)cc2c1")
68
>>> numeric_result("O=C(c1ccccc1)c1ccc(N2CCOCC2)cc1O")
68
>>> numeric_result("Cn1sc(=O)n(Cc2ccccc2)c1=O")
70

Ask: Please look up its residual activity: CC(C)N(CCC(=O)c1ccc2ccccc2c1)Cc1ccccc1
Reply: 72

###

Target: Serine/threonine-protein kinase N2 (Homo sapiens)
Details: at 10 µM
measure: residual activity
A complete answer gives the number and then names the unit.

Consider the worked cases shown below.
>>> result("O=C(c1ccccc1)c1ccc(N2CCOCC2)cc1O")
"129%"
>>> result("CCOc1nc(NC(=O)Cc2cc(OC)ccc2OC)cc(N)c1C#N")
"82%"
>>> result("O=C1NC(=O)C(c2cn(CCCO)c3ncccc23)=C1c1cnccn1")
"87%"
>>> result("CCCC(=O)Oc1ccc2[nH]c(C(=O)c3cc4ccccc4[nH]3)cc2c1")
"93%"
>>> result("Nc1ncnc2c1cnn2-c1ccccc1")
"79%"

Read the next record carefully.
Ask: # query: residual activity | item c1ccc(-c2cnc(Nc3ccc(OCCN4CCCC4)cc3)s2)cc1 | system: Serine/threonine-protein kinase N2 (Homo sapiens)
Reply: 100%
